Reference source: the supplement of paper PMC10567573

B1: ZNF649 (parent)
chain: LVAHQRYHTGKTPFVCPECGQPCS

variants of: B1; test: protein stability index of a GFP-peptide fusion (GPS, HEK-293T) (PSI 1-6); higher = more stable; conditions: c terminus: a fixed tail appended;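 further: lentivirally expressed fusions sorted by FACS into six bins by GFP to DsRed ratio, PSI derived from sequencing read proportions per bin multiplied by bin number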
readout: protein stability index
The answer should be written as a number, with no unit following it.

Answered cases to consult:
1. P13H = 3.36
2. Y7K = 3.31
3. V2L = 3.09
4. H4V = 2.97
5. R6D = 3.58

input: Please report the recorded protein stability index for "Q21F" .
output: 2.21

input: Which protein stability index reading was recorded for the variant "S24V" ?
output: 3.13

input: I'd like to know its protein stability index. The variant in question is "P13V"
output: 3.32

input: Given the entry "V15Q" , report its measured protein stability index.
output: 3.36

input: Need protein stability index of "T12A" , thanks.
output: 3.49

input: So what does the record say about protein stability index for "E18D" ?
output: 3.18
